- assayProtocol: NFAT Signaling Pathway (AID 444);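 also: carbachol stimulus at about its EC50 of 1 µM final; % is scaled to controls: 0 for no effect and ±100 for the full control effect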
- recordedConditions: Jurkat NFAT-bla M1, carbachol, beta-lactamase ratio, 5 h; at 7.69 µM (top of the series) unless noted
Results filed as inconclusive are left out.
measurementLabel: activity change, negative = inhibition (%)
Answers are plain numbers, in %.

Worked examples, 3 compounds total:
COc1ccc(NC(=O)N2CC[C@@]3(CCCN(C(=O)c4cc(C(F)(F)F)cc(C(F)(F)F)c4)C3)C2)cc1; 12.7
COc1ccc(Oc2ncc3ncc(=O)n(CCc4ccccc4)c3n2)cc1; -16.6
Cc1nc2cnc(N3CCN(C)CC3)nc2n(C[C@H]2CCCO2)c1=O; -3.95

Your task in this section: give activity change, negative = inhibition for each listed record.
1. CCNc1ncc2ncc(=O)n(C[C@H]3CCCO3)c2n1
2. COCCn1c(=O)c(-c2ccc(Cl)cc2)nc2cnc(Oc3ccccc3)nc21
3. Cc1cnc(CNc2nc(-c3c(C)noc3C)nc3ccccc23)cn1
4. Cc1noc(C)c1C(=O)N1CCC[C@@]2(CCN(C(=O)Nc3ccccc3)C2)C1
5. COc1ccccc1CNc1ccnc(-c2ccccc2CN(C)C)n1
6. CN(Cc1ccco1)c1cc(-c2cccnc2)ncn1

-20
17.4
15
19.8
-25.2
-0.973

Your task in this section: give activity change, negative = inhibition for each listed record.
1. COC(=O)N1CCC[C@@]2(CCN(c3ncccn3)C2)C1
2. Clc1ccccc1-c1cc(NCc2ccccc2)ncn1
3. Cc1nc2cnc(N(C)C)nc2n(Cc2cccs2)c1=O
4. Cn1c(=O)c(-c2ccc(F)cc2)nc2cnc(Nc3ccccc3)nc21
5. O=C(c1ccco1)N1CCC2(CCN(Cc3cc(C(F)(F)F)cc(C(F)(F)F)c3)CC2)CC1
6. COc1ccc(-c2nc3cnc(OC)nc3n(CCc3ccccc3)c2=O)cc1

11.8
1.92
-7.11
-9.42
2.65
1.97

Your task in this section: give activity change, negative = inhibition for each listed record.
1. COCC(=O)N1CCC[C@@]2(CCN(c3ccccc3)C2)C1
2. COc1cccc(-c2cc(NCCc3c[nH]c4ccc(OC)cc34)ncn2)c1
3. COc1ncc2nc(CCc3ccccc3)c(=O)n(Cc3ccc(F)cc3)c2n1
4. CN(Cc1ccco1)c1ccnc(-c2ccccc2C(F)(F)F)n1
5. O=c1c(CCc2ccccc2)nc2cnc(N3CCOCC3)nc2n1C[C@H]1CCCO1
6. Cc1ccccc1-c1nccc(-n2ccnc2)n1
7. Clc1ccccc1-c1nc(NCc2cccnc2)c2ccccc2n1

-13.7
-9.49
-13.1
-8.64
-4.34
-8.66
17.1

====

Could you please report measured Potency for the items listed next?
- testTarget: Glucocorticoid receptor (Homo sapiens) (UniProt P04150)
- Sequence (P04150 whole entry, looked up): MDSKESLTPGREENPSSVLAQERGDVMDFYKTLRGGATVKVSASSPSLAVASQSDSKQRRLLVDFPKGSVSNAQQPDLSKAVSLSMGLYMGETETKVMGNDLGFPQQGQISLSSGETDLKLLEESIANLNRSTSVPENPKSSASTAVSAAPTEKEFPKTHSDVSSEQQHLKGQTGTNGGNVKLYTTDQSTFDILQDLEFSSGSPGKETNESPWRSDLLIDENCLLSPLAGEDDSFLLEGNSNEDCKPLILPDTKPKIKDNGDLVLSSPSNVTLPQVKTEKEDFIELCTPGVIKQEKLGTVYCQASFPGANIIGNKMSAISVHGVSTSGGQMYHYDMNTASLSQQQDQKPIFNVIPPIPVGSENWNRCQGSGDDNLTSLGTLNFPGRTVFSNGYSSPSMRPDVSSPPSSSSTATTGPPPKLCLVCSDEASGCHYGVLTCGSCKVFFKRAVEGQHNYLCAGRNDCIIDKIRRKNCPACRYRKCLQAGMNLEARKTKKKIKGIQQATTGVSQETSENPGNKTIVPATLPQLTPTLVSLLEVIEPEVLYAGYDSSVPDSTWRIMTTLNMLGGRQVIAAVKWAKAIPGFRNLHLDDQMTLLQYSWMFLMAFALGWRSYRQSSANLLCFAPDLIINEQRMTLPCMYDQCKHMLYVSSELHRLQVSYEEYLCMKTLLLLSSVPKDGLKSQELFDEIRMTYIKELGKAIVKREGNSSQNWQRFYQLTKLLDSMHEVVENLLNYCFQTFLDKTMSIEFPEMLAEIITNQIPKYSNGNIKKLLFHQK
- assayProtocol: GR-GFP Redistribution (AID 450); also: potency is read from the fitted curve at half-maximal effect
- recordedConditions: U2OS GR-GFP nuclear translocation, laser cytometry, 2 h
The source made the active and inactive calls.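 Rule for the calls: active = compounds whose dose series gives a full or clear partial fitted curve of increased nuclear translocation; inconclusive = weak partial curve or effect only at the top dose; inactive = no dose-dependent translocation response.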

Worked examples, 5 compounds total:
O=c1cnc2cnc(N3CCOCC3)nc2n1C[C@H]1CCCO1; > 9.22 µM (inactive)
CCNc1ncc2nc(-c3cc(F)cc(F)c3)c(=O)n(Cc3cccs3)c2n1; > 9.22 µM (inactive)
COc1cccc(-c2nc(NCc3cccs3)c3ccccc3n2)c1; > 46 µM (inactive)
Cc1noc(C)c1-c1nc(NCc2ccccc2)c2ccccc2n1; > 46 µM (inactive)
c1cc(NC2CC2)nc(-c2ccoc2)n1; > 46 µM (inactive)

Your task in this section: give Potency for each listed record.
1. COc1ccc(-c2nc3cnc(N4CCOCC4)nc3n(Cc3cccc(OC)c3)c2=O)cc1
2. COc1ccc(-n2c(=O)c(-c3ccc(Cl)cc3)nc3cnc(N4CCOCC4)nc32)cc1
3. Fc1ccc(Nc2nc(-c3ccoc3)nc3ccccc23)cc1
4. COc1ccc2[nH]cc(CCNc3ccnc(-c4ccc(N(C)C)cc4)n3)c2c1
5. CCNc1ncc2nc(-c3ccc(Cl)cc3)c(=O)n(Cc3cccs3)c2n1
6. O=c1c(-c2ccc(Cl)cc2)nc2cnc(N3CCNCC3)nc2n1Cc1ccc(F)cc1

> 9.22 µM (inactive)
> 9.22 µM (inactive)
> 46 µM (inactive)
> 46 µM (inactive)
> 9.22 µM (inactive)
> 9.22 µM (inactive)
